Assign CLint scaled at 0.5 μM to each entry below.
assay: Stability of compounds in human liver microsomes; assay type: in vitro ADME; details: both sexes, liver microsomes, pH 7.4; calculated from HLM half-life, human; read-out: HLM Scaled Intrinsic Clearance

INSERT INTO results (structure_smiles_string, measurement_kind, result) VALUES
  ('COc1cc2c(cc1OCCC1(C#N)CC1)CCN1C[C@@H](CC(C)(C)C)[C@H](O)C[C@H]21', 'CLint scaled at 0.5 μM', '9.7 mL/min/kg'),
  ('COc1cc2c(cc1OCC1(F)CC1)CCN1C[C@@H](CC(C)(C)C)[C@H](O)C[C@H]21', 'CLint scaled at 0.5 μM', '≤ 2.97 mL/min/kg'),
  ('COc1cc2c(cc1OC1COC1)CCN1C[C@@H](CC(C)(C)C)[C@H](O)C[C@H]21', 'CLint scaled at 0.5 μM', '≤ 2.97 mL/min/kg');

Enquiry: Query (molecule): COc1cc2c(cc1OCCCCC(F)(F)F)CCN1C[C@@H](CC(C)(C)C)[C@H](O)C[C@H]21 ; field requested: CLint scaled at 0.5 μM
Return: 9.38 mL/min/kg

----------
target: human VMAT2 (Homo sapiens (Human), UniProt Q05940); assay: VMAT2 radioligand binding, 3H-dihydrotetrabenazine competition on human platelet homogenate; details: 10 nM 3H-dihydrotetrabenazine, human platelet homogenate, 25° C., 90 minutes; read-out: VMAT2 Ki
Sequence (Q05940 whole entry): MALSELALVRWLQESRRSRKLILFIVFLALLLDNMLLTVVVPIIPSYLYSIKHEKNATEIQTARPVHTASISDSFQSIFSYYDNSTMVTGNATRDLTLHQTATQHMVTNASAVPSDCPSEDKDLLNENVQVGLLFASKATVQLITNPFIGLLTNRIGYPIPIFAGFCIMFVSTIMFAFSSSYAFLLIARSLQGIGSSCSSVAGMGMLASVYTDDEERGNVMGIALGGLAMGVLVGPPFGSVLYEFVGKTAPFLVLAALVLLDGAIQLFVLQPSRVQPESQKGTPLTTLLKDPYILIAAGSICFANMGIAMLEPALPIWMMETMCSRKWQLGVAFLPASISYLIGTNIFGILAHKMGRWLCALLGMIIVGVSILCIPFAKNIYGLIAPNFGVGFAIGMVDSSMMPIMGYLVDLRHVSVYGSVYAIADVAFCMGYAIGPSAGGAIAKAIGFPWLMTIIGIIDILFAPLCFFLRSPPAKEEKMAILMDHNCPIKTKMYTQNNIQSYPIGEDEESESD
Label Satisfied when Ki is strictly below 100 nM; otherwise label Not satisfied.

INSERT INTO results (structure_smiles_string, target_system, cat) VALUES
  ('COc1cc2c(cc1OCC1CCS(=O)(=O)CC1)CCN1C[C@@H](CC(C)(C)C)[C@H](O)C[C@H]21', 'human VMAT2 (Homo sapiens (Human), UniProt Q05940)', 'Not satisfied');

Enquiry: For COc1cc2c(cc1OC1COC1)CCN1C[C@@H](CC(C)(C)C)[C@H](O)C[C@H]21 , is the recorded Ki below the cut-off of 100 nM?
Return: Satisfied

Enquiry: Record COc1cc2c(cc1OCC1(F)CCC1)CCN1C[C@@H](CC(C)(C)C)[C@H](O)C[C@H]21 : is its Ki strictly below 100 nM?
Return: Satisfied

Enquiry: Dear reviewer, please state whether COc1cc2c(cc1OC[C@H](O)CO)CCN1C[C@@H](CC(C)(C)C)[C@H](O)C[C@H]21 has Ki strictly beneath 100 nM.
Return: Not satisfied

Enquiry: Confirm or reject: Ki of COc1cc2c(cc1OCC1(C#N)CCC1)CCN1C[C@@H](CC(C)(C)C)[C@H](O)C[C@H]21 lies strictly below 100 nM
Return: Satisfied

Enquiry: Just wondering, is Ki of COc1cc2c(cc1OCCC(F)(F)F)CCN1C[C@@H](CC(C)(C)C)[C@H](O)C[C@H]21 below 100 nM?
Return: Satisfied

Enquiry: # check: Ki < 100 nM for COc1cc2c(cc1OC[C@@H]1CCO1)CCN1C[C@@H](CC(C)(C)C)[C@H](O)C[C@H]21
Return: Satisfied

----------
Test: Stability of compounds in human liver microsomes
Type: in vitro ADME
Details: both sexes, pH 7.4; 0.5 μM compound, 0.5 mg/mL human liver microsomes, 37° C.; maxed at 420 minutes; read-out: HLM Elimination half-life (t1/2, min)
Procedure: A test compound (0.5 μM) was incubated with pooled mixed gender liver microsomes from humans (0.5 mg/mL total protein) at 37° C. in the presence of an NADPH-generating system containing 50 mM, pH 7.4 potassium phosphate buffer, 3 mM magnesium chloride, 1 mM EDTA, 1 mM NADP, 5 mM glusose-6-phosphate, and 1 Unit/mL glucose-6-phosphate dehydrogenase. […] Aliquots of the resulting supernatant fractions were analyzed by LC-MS/MS monitoring for depletion of parent compound. […]
measurement_kind: half-life at 0.5 μM (min)
One number for each entry, in min.

Please review the entries below; each comes with its answer.
INSERT INTO results (structure_smiles_string, measurement_kind, quantitative_readout) VALUES
  ('COc1cc2c(cc1OC[C@H](C)OC)CCN1C[C@@H](CC(C)(C)C)[C@H](O)C[C@H]21', 'half-life at 0.5 μM', 49),
  ('COc1cc2c(cc1OCC1(F)COCCOC1)CCN1C[C@@H](CC(C)(C)C)[C@H](O)C[C@H]21', 'half-life at 0.5 μM', 80);

State the recorded half-life at 0.5 μM for every item in the following list.
1. CCOc1cc2c(cc1OC)[C@H]1C[C@@H](O)[C@H](CC(C)(C)C)CN1CC2
2. COc1cc2c(cc1OCC(F)F)CCN1C[C@@H](CC(C)(C)C)[C@@H](O)C[C@H]21

Return:
1: 38; 2: 342
